Target: GST-SBP-SLBP (stem-loop binding protein) (Homo sapiens, UniProt Q14493 1-270)
Assay: targeted RNA Bind-n-Seq; RBNS binding buffer: 25 mM Tris pH 7.5, 150 mM KCl, 3 mM MgCl2, 0.1% Tween, 0.5 mg/mL BSA, 1 mM DTT; 27 nM protein, 750 pM RNA pool; temperature not stated; high values mean tight binding
Settings: protein: recombinant; tags: N-terminal GST and SBP (pGEX6P1-SBP); structured_RNA
Over roughly 11,000 sequences, “log2 fold change” has its median near 0.00022; the highest 2% begin near 0.34. Some of the results follow.
# binding signal values compiled below
The reply should contain only the number, in log2 fold change.

Sample records with binding signal:
GGUCACGUCUCAAUCAACUCUCAAGAGGGGGGGAAAACCCCUUUGCCCUCCAUGUCAACAGCUCGCAGUCAAG :: 0.411
GGUCACGUCUCAAUCAACUCUACUUCCAGGGAAAACCCUGGCAAACUCAACAGCUCGCAGUCAAG :: 0.31
GGUCACGUCUCAAUCAACUCCUCGGAGGGGGGGAAAACCCCUUUACCCUCAUAUUCAACAGCUCGCAGUCAAG :: 0.374

Reported binding signal of GGUCACGUCUCAAUCAACUCCAAAGAGGGGGGGAAAACCCCUUUACCCUCAACCUCAACAGCUCGCAGUCAAG : 0.316

Reported binding signal of GGUCACGUCUCAAUCAACUCCACAGAGGGGGGGAAAACCCCUUUGCCCUCCAUAUCAACAGCUCGCAGUCAAG : 0.437

Reported binding signal of GGUCACGUCUCAAUCAACUCAACUGAGGGGGGGAAAACCCCUUUACCCUCCACAUCAACAGCUCGCAGUCAAG : 0.388

Reported binding signal of GGUCACGUCUCAAUCAACUCCAAAGAGGGGGGGAAAACCCCUUUACCCUCCGCAUCAACAGCUCGCAGUCAAG : 0.352

Reported binding signal of GGUCACGUCUCAAUCAACUCCAAAGAGGGGGGGAAAACCCCUUUACCCUCACUUUCAACAGCUCGCAGUCAAG : 0.398

---

Biological target: GST-SBP-SLBP (stem-loop binding protein) (Homo sapiens, UniProt Q14493 1-270)
Assay: targeted RNA Bind-n-Seq; RBNS binding buffer: 25 mM Tris pH 7.5, 150 mM KCl, 3 mM MgCl2, 0.1% Tween, 0.5 mg/mL BSA, 1 mM DTT; 27 nM protein, 750 pM RNA pool; temperature not stated; high values mean tight binding
Settings: protein: recombinant; tags: N-terminal GST and SBP (pGEX6P1-SBP); structured_RNA
Over roughly 11,000 sequences, “log2 fold change” has its median near 0.00022; the highest 2% begin near 0.34. This is one part of the list.
# binding signal values compiled below
The reply should contain only the number, in log2 fold change.

Reported binding signal of GGUCACGUCUCAAUCAACUCCAAAGAGGGGGGGAAAACCCCUUUGCCCUCGAAAUCAACAGCUCGCAGUCAAG : 0.347

Reported binding signal of GGUCACGUCUCAAUCAACUCUCCAGAGGGGGGGAAAACCCCUUUACCCUCACAUUCAACAGCUCGCAGUCAAG : 0.328

Reported binding signal of GGUCACGUCUCAAUCAACUCCUCAGAGGGGGGGAAAACCCCUUUGCCCUCCAAAUCAACAGCUCGCAGUCAAG : 0.317

Reported binding signal of GGUCACGUCUCAAUCAACUCAGUCCCCAGGGAAACCCCUGGUAUUUUCAACAGCUCGCAGUCAAG : 0.335

Reported binding signal of GGUCACGUCUCAAUCAACUCCAAAGAGGGGGGGAAAACCCCUUUACCCUCCGUUUCAACAGCUCGCAGUCAAG : 0.395

Taken from paper PMC5892938.
